In this section, each of the variants is paired with its reported self-cleavage kobs at 10000 uM GlcN6P.
B1: glmS ribozyme (parent)
chain: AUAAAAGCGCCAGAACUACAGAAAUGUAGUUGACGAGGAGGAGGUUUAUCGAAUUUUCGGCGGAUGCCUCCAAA

variants of: B1; experiment: self-cleavage kobs at 10000 uM GlcN6P; higher = faster cleavage; RNA array; settings: with glucosamine-6-phosphate
This sample holds only a part of the variants without activity.
Observable: self-cleavage kobs at 10000 uM GlcN6P (s⁻¹)

In [3]: df
Out[3]:
               variant_label  rel  reported
 0                 A14C G66C    =  7.85e-05
 1  U31C G35A G40C C58U G60A    <     1e-05
 2                 C16A U46C    =  5.46e-05
 3            U31G A39G A64G    =    0.0288
 4                 U47A A52G    =   0.00146
 5                 G44A C71G    <     1e-05
 6                 G13U U46A    =  2.96e-05
 7       G38U A48C A52C C71A    <     1e-05
 8                 U47C G62C    <     1e-05
 9            A14C A48C G59U    <     1e-05
10                 C10G G59U    =  3.25e-05
11            G43U U65G C68U    =    0.0019
12            G40C G59C U65G    <     1e-05
13                 U45C A53C    =  0.000403
14       A15U G38C G43C G51U    <     1e-05
15            A39U U55A U56C    =   0.00213
16                 C11G G59U    =  9.62e-05
17                 A33C U47A    =  0.000195
18                 G43A U69G    <     1e-05
19                 A12C U49C    <     1e-05
20                 C11A A39G    =  0.000422
21            G13C A48U C70G    <     1e-05
